# Test system: Candida albicans
# experiment notes: Antifungal activity against Candida albicans ATCC 10231 after 48 hrs by broth microdilution technique
# Type: functional
# measurement setup: ATCC 10231, 48 h
reported metric: MIC80 (µg/mL)
Return type: number; implicit unit µg/mL.

Study these solved cases before continuing.
C(=C\c1ccc2ccccc2n1)/c1ccncc1; 15.6
Cc1ccc2nc(-c3ccncc3)ccc2c1; 31.2
c1ccc2nc(-c3ccncc3)ccc2c1; 15.6
CCc1ccc2nc(-c3ccccn3)ccc2c1; 15.6
Clc1ccc2nc(/C=C/c3ccncc3)ccc2c1; 31.2
C[C@@H]1[C@H](O)[C@@H](C)/C=C/C=C/C=C/C=C/C=C/C=C/C=C/[C@H](O[C@@H]2O[C@H](C)[C@@H](O)[C@H](N)[C@@H]2O)C[C@@H]2O[C@](O)(C[C@@H](O)C[C@@H](O)[C@H](O)CC[C@@H](O)C[C@@H](O)CC(=O)O[C@H]1C)C[C@H](O)[C@H]2C(=O)O; 1

Query molecule follows.
// field: MIC80; key: `Fc1ccc2nc(/C=C/c3ccccn3)ccc2c1` ; value = 31.2

###

# Test system: Cryptococcus neoformans
# experiment notes: Antifungal activity against Cryptococcus neoformans IM 00319 after 48 hrs by broth microdilution technique
# Assay type: functional
# measurement setup: IM 00319, 48 h
reported metric: MIC50 (µg/mL)
Return type: number; implicit unit µg/mL.

Study these solved cases before continuing.
C(=C\c1ccc2ccccc2n1)/c1ccncc1; 7.8
c1ccc2nc(-c3ccncc3)ccc2c1; 31.2
CCc1ccc2nc(-c3ccccn3)ccc2c1; 7.8
Clc1ccc2nc(/C=C/c3ccncc3)ccc2c1; 31.2
Cc1ccc2nc(-c3ccncc3)ccc2c1; 15.6

Query compound follows.
Let me check: `Fc1ccc2nc(/C=C/c3ccccn3)ccc2c1` , system Cryptococcus neoformans, measured MIC50 is 15.6

###

# Test system: Nannizzia gypsea
# experiment notes: Antifungal activity against Microsporum gypseum CCC 115 after 48 hrs by broth microdilution technique
# Assay type: functional
# measurement setup: CCC 115, 48 h
reported metric: MIC (mg/L)
Return type: number; implicit unit mg/L.

Study these solved cases before continuing.
Fc1ccc2nc(-c3cccnc3)ccc2c1; 62
Clc1cccc2ccc(-c3ccncc3)nc12; 31
C[C@@H]1[C@H](O)[C@@H](C)/C=C/C=C/C=C/C=C/C=C/C=C/C=C/[C@H](O[C@@H]2O[C@H](C)[C@@H](O)[C@H](N)[C@@H]2O)C[C@@H]2O[C@](O)(C[C@@H](O)C[C@@H](O)[C@H](O)CC[C@@H](O)C[C@@H](O)CC(=O)O[C@H]1C)C[C@H](O)[C@H]2C(=O)O [AMPHOTERICIN B]; 0.12

// field: MIC; key: `Clc1ccc2nc(-c3ccncc3)ccc2c1` ; value = 125

###

# System: Cryptococcus neoformans
# experiment notes: Antifungal activity against Cryptococcus neoformans IM 972751 after 48 hrs by broth microdilution technique
# Format: functional
# measurement setup: IM 972751, 48 h
Catalogue of MIC50 values
Return type: number; implicit unit µg/mL.

// field: MIC50; key: `C(=C\c1ccc2ccccc2n1)/c1ccncc1` ; value = 3.9

// field: MIC50; key: `Fc1ccc2nc(/C=C/c3ccccn3)ccc2c1` ; value = 15.6

// field: MIC50; key: `Clc1ccc2nc(/C=C/c3ccncc3)ccc2c1` ; value = 15.6

// field: MIC50; key: `CCc1ccc2nc(-c3ccccn3)ccc2c1` ; value = 3.9

// field: MIC50; key: `Cc1ccc2nc(-c3ccncc3)ccc2c1` ; value = 7.8

// field: MIC50; key: `c1ccc2nc(-c3ccncc3)ccc2c1` ; value = 7.8
